Values from paper PMC9482650

TARGET: Inadl_9, Q8NI35
Sequence (Q8NI35 1530-1615): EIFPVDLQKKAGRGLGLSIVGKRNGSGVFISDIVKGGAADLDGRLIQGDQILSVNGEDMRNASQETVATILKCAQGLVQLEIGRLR
TEST_DESCRIPTION: holdup assay
Parameters: key: below the threshold = too weak to quantify, mostly under pKd 3.1 to 4
MEASUREMENT_CONTEXT: plain residues with an end cap or a label only (N-terminal biotin on a linker: ado-ado)
MEASUREMENT_NAME: pKd

# annotated cases, reported pKd shown
I am curious: what pKd value has been reported for LAHVKHKEQI [AQP3, Q92482] ?
below the threshold

Similarly, LESTTVGTSV [KARS1, Q15046] ?
3.67

Similarly, PYSESDDDWC [CACNA1A, O00555] ?
below the threshold

Similarly, EKCGKEFSEF [PRKACA, P17612] ?
below the threshold

Similarly, DDASLPVSDV [PLEKHA1, Q9HB21] ?
3.59

Similarly, KSRVAFFEEL [NF2, P35240;P35240-1] ?
below the threshold

---
I am curious: what pKd value has been reported for EIPAQSPTCV [FZD10, Q9ULW2] ?
4.6

Similarly, TRKRSGEAAV [PFKM, P08237] ?
below the threshold

Similarly, STKRKLASAV [NCF1, P14598] ?
below the threshold

Similarly, DFLSTFHIRI [CIB2, O75838] ?
3.66

Similarly, SLNANEVEWF [RNF130, Q86XS8] ?
below the threshold

Similarly, AQRARSPSDV [GPR12, P47775] ?
below the threshold

Similarly, DPAESMESLV [PTPRG, P23470] ?
3.73
